Parameter: logD. Scope: all listed entries.
# EXPERIMENT_DESCRIPTION: Distribution coefficient, logD of the compound at pH 7.4 by chromatography
# Type: physicochemical
# CONDITION_SET: octanol/water
QUANTITY_NAME: logD

>>> df
                   compound_structure_string  quantity_name  assay_value
 0        O=C(NCc1ccc(Cl)cc1)c1ccc2cccnc2c1O           logD          4.8
 1       CNC(=O)c1nc(-c2ccccc2OC)c2cccnc2c1O           logD          4.2
 2  COc1ccccc1-c1nc(-c2nc(C)n[nH]2)c(OC)c2ncccc12           logD          5.7
 3             Cc1n[nH]c(-c2ncc3cccnc3c2O)n1           logD         0.73
 4  COc1ccccc1-c1nc(C(=O)N[C@H](C)c2ccc(F)cc2)c(O)c(=O)n1C           logD          5.5
 5  Oc1c(-c2nnc(Cc3ccc(Cl)cc3)[nH]2)ncc2cccnc12           logD          4.1
 6    COc1ccc(CNC(=O)c2nn(C)c3cccnc3c2=O)cc1           logD          1.9
 7        O=C(NCc1ccc(Cl)cc1)c1ncc2ccccc2c1O           logD          7.6
 8  COc1ccccc1-c1nc(-c2nnc(C)o2)c(O)c2ncccc12           logD          3.8
 9   Oc1c(-c2nc(CN3CCOCC3)n[nH]2)ncc2cccnc12           logD          0.5
10        COc1ccc(CNC(=O)c2ncc3cccnc3c2O)cc1           logD          4.2
